- System: B6C3F1 mice, B16 melanoma ip, median survival T/C
- Test Description: NCI In Vivo Anticancer Drug Screen. Data for tumor model B16 Melanoma (intraperitoneal) in B6C3F1 mice
- Particulars: endpoint: median survival time; dose: 50.0 mg/kg/injection; schedule: Q01DX009 (ip); vehicle: saline
Inconclusive results and toxic doses are left out. How the source made its calls: active means survival T/C of 150% or more; inactive means T/C below 125% in these data.
Outcome codes: active, inactive

>>> assigned_label("NNc1nncc2ccccc12")
"inactive"
>>> assigned_label("CC(=O)NC(Cc1cc(I)c(O)c(I)c1)C(=O)O (stereo unspecified)")
"inactive"
>>> assigned_label("O=C(O)C1CC(O)CN1 (stereo unspecified)")
"inactive"
>>> assigned_label("Nc1nc(/C=C(/O)c2ccccc2)c2ncn(C3OC(CO)C(O)C3O)c2n1 (stereo unspecified)")
"inactive"
>>> assigned_label("CCCCCCCCCCCCCCCC(=O)Nc1ccn(C2OC(CO)C(O)C2O)c(=O)n1 (stereo unspecified)")
"active"
>>> assigned_label("NCCc1ccc(O)cc1")
"inactive"
>>> assigned_label("C[C@H](N)C(=O)N[C@@H]1[C@H]2C(=C(O)C[C@@H](O)[C@@H]2O)C(=O)O[C@@H]1C")
"inactive"
>>> assigned_label("C=C(C(=O)O)C(N)C(=O)O (stereo unspecified)")
"inactive"
>>> assigned_label("O=C(O)CC1C(=O)OC2C3COC(=O)c4cc(O)c(O)c(O)c4-c4c(cc(O)c(O)c4O)C(=O)OC2C(OC(=O)c2cc(O)c(O)c4c2C1C(O)C(=O)O4)C(OC(=O)c1cc(O)c(O)c(O)c1)O3 (stereo unspecified)")
"inactive"
>>> assigned_label("NC1=NC(=O)N2CC12 (stereo unspecified)")
"inactive"
>>> assigned_label("CCCC(C(=O)OCCN1CCCC12CCCCC2)C1CCCC1 (stereo unspecified)")
"inactive"
